Where these numbers come from: patent US20180339041A1

Target: T1, C-terminally FLAG-tagged human Gas6 recombinant protein (hGas6-F) (human, UniProt Q14393 31-678, gamma-carboxylated glutamic acid residues in the Gla domain (producer cells co-express rat VKOR and human GGCX); positions not given)
T1 construct: also called human Gas6-F; human Gas6 protein
T1 sequence: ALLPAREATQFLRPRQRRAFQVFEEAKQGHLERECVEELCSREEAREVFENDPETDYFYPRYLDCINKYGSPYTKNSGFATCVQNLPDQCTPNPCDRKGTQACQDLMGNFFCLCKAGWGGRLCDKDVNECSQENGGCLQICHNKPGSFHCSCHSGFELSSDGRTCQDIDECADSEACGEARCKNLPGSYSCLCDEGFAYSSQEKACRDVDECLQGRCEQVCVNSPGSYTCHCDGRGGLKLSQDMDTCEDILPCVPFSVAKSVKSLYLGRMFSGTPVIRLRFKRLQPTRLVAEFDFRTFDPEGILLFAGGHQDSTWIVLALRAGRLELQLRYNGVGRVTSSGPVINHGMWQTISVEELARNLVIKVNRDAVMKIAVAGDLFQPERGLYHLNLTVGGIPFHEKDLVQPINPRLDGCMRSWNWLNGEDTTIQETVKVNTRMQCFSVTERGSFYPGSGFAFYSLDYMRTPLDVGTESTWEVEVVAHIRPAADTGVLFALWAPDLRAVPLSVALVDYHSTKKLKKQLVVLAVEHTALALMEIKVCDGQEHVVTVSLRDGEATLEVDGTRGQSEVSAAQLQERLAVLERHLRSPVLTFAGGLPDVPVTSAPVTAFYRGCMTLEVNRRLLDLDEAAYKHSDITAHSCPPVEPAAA
Test: competitive ELISA, inhibition of hGas6-F binding to immobilised hAxl-hFc
attribute measured: IC50 (µg/mL)
Numbers only; they are read as µg/mL.

hzKM5321 LV6HV2b antibody (antibody, V domains shown, Humanized; variant human IgG4 constant region (EU S228P, L235E, R409K), human kappa; also called B-24; LV6HV2b) VH: QVHLVQSGPELKKPGASVKISCKASGYTFTNYGMNWVRQAPGQGLEWMGWINTNTGEPTYTEEFKGRFVFSLDTSVTTSYLQISTLKAEDTATYFCARDEGWFVYWGQGTLVTVSS VL: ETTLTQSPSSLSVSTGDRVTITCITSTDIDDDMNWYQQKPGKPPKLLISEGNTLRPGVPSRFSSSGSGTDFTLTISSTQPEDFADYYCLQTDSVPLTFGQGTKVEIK
0.0126

Please examine the following record next.
hzKM5320 LV5HV2 antibody (antibody, V domains shown, Humanized; variant human IgG4 constant region (EU S228P, L235E, R409K), human kappa; also called kzKM5320 LV5HV2; A-20) VH: QVQLVQSGSELKKPGASVKVSCKASGYTFTNYGMNWVRQAPGQGLEWMGWINTETGEPTYSDDFKGRFVFSLDTSVSTAYLQISSLKAEDTATYFCAREDGYYGTLDYWGQGTTVTVSS VL: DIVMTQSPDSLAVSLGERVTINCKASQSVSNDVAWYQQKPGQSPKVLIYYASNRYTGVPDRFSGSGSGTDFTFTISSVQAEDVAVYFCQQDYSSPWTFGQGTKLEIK yielded IC50 of 0.0336
